Taken from patent US20230374132A1.

# targetOfAssay: T1, human CD3E&G complex (Sino Biological Inc., CT041-H0305H) (human, UniProt P07766 23-126; P09693 23-116)
# T1 construct: bought heterodimer; also called human CD3E&G antigen
# T1 sequence (P07766 23-126, chain 1 of 2): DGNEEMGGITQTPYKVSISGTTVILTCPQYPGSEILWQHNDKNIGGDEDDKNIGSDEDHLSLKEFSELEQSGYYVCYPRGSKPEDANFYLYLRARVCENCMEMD
# T1 sequence (P09693 23-116, chain 2 of 2): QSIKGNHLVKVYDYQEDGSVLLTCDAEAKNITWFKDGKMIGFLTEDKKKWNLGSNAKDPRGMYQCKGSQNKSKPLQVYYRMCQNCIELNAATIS
# runDescription: BLI, antibody on sensor
pKd: −log10 of the molar value.

>  <binder>
hzsp34.116 (antibody, human IgG1, lambda, L234A L235A, V domains shown, CDR mutant of hzsp34.24; IgG1 L234A L235A, lambda) VH: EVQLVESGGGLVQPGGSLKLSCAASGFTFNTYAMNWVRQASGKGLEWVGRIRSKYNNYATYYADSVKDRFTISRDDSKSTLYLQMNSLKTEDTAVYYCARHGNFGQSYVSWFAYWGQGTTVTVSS VL: QAVVTQEPSLTVSPGGTVTLTCRSSTGAVTTSNYANWVQQKPGQAPRGLIGGTNSRAPGVPARFSGSLLGDKAALTLLGAQPEDEAEYYCALWYSDLWVFGQGTKLTVLG

>  <pKd>
7.80

$$$$
